Assign TGI to each entry below.
system: SNB-19 CNS; assay: NCI tumour cell line growth inhibition, 48 h
Where a SMILES comes first, the peptide text is derived from it. [ ]: non-standard residue; d: D form. pGlu = O=C1CC[CH](C(=O)O)N1

# annotated cases, reported TGI shown
| Compound | Result |
| --- | --- |
| Nc1ncnc2c1ncn2[C@H]1C=C[C@@H](NO)C1 | > 100 µM |
| NCC(=O)Nc1ccccc1 | > 100 µM |
| C(=N\Nc1ncc(-c2cc3cc4c(cc3o2)OCO4)s1)/c1ccco1 | 23.1 µM |
| NC(=O)c1cc(N2CC2)c([N+](=O)[O-])cc1[N+](=O)[O-] | > 200 µM |
| O=c1cc(-c2ccc(F)cc2)[nH]c2ncccc12 | > 100 µM |
| Cc1ccc(S(=O)(=O)ON2C(=O)c3cccc4cc([N+](=O)[O-])cc(c34)C2=O)cc1 | > 100 µM |
| COc1cc2nc(N3CCCN(C)CC3)nc(NC3CCN(Cc4ccccc4)CC3)c2cc1OC | 18.1 µM |
| CN(C)CCNc1ccc2ncn3c4ccc(O)cc4c(=O)c1c23 | 17.2 µM |

Kindly give each listed record's TGI.
1. [N-]=[N+]=NCN1C(=O)C2C3C=CC(C2C1=O)C1C2C(=O)N(CN=[N+]=[N-])C(=O)C2C31 (centres undefined)
2. CC(NC(=O)C1CCC(=O)N1)C(=O)N1CCCC1C(N)=O (stereo not drawn) ([pGlu]-Ala-Pro-NH2; configuration not given here)
3. O=S(=O)(N=C1C(Cl)=C(Cl)C(=NS(=O)(=O)c2ccccc2)C(Cl)=C1Cl)c1ccccc1

1. > 100 µM
2. > 100 µM
3. > 100 µM

* * *

test system: HCT-116 colon; assay: NCI tumour cell line growth inhibition, 48 h
Metric Name: GI50

| Compound | Metric Name | Result |
| --- | --- | --- |
| CCC(CC)n1cnc2c(-c3cnc(N)cn3)nc(N3CC4CCC(C3)O4)nc21 | GI50 | 0.63 µM |

Please give GI50, item by item, for the list that follows.
1. CCOC(=O)C(=Cc1ccc(C#N)cc1)C(=O)OCC
2. CCC[CH2][Sn](=[O])[CH2]CCC
3. COc1cc2nc(Nc3cccc(Cl)c3)nc(N)c2cc1OC

1. 2.15 µM
2. > 50 µM
3. 2.34 µM

Batch request: GI50 per item, same order as input.
1. Cc1ccc(CNc2ccc3nc(CCC4CCCCC4)[nH]c3c2)cc1
2. NC(=S)N/N=C/c1ccc(OC(=O)COc2cc(Cl)c(Cl)cc2Cl)cn1

1. 1.95 µM
2. 4.25 µM

* * *

tested on: RPMI-8226 leukemia; experiment: NCI tumour cell line growth inhibition, 48 h
Give measured TGI for each item. Keep answers brief.

Please review the entries below; each comes with its answer.
| Molecule | Tested Target | TGI |
| --- | --- | --- |
| CCOC(=O)C12CCCC1(O)N(NC(=O)OC)C(C)=C2C(=O)OC (stereo not drawn) | RPMI-8226 leukemia | > 100 µM |
| COc1ccc(-c2ncnc3c2ncn3CC#CCCl)cc1 | RPMI-8226 leukemia | 20 µM |
| CC(NC1=NCCO1)c1ccccc1Cl (stereo not drawn) | RPMI-8226 leukemia | > 100 µM |

Okay, here is my list. What is TGI for each of these?
1. COc1ccc(C(=O)/C=C/c2ccc(OCCCCCCCCCCOc3ccc(/C=C/C(=O)c4ccc(OC)cc4)cc3)cc2)cc1
2. Cc1c(NC(=S)Nc2ccc([N+](=O)[O-])cc2)c(=O)n(-c2ccccc2)n1C

["> 100 µM", "> 100 µM"]

Below is a list of molecules. For each, state its recorded TGI.
1. Oc1ccccc1-c1nn(CNc2ccc(Cl)cc2)c(=S)o1
2. CC(C)(C)c1cc(/C=C(\C#N)C2=NCCO2)cc(C(C)(C)C)c1O

1. > 100 µM
2. 4.74 µM

Required: TGI, one value per molecule below.
1. O=C(c1c(F)c(F)c(F)c(F)c1F)c1c(F)c(F)c(F)c(F)c1F
2. Cc1ccc(OP(=O)(Oc2ccc(C)cc2)N2C=Cc3ccccc3C2C#N)cc1 (stereo not drawn)
3. CC(=O)O.CN1[CH-]N(Cc2ccc(C#N)cc2)c2ccccc21.[Ag+]
4. NC1=Nc2ccccc2Sc2nncn21
5. O=C1c2c(c(=O)[nH]c3ccccc23)[C@H](c2ccccc2)[C@@H]2CCCN12
6. Cn1c(-c2ccc(C=O)o2)ccc1-c1ccc(C=O)o1
7. COC(=O)CCc1ccc(CCC(=O)OC)cc1
8. Cc1cc2c(F)c(Oc3ncnc(Nc4ccc(N5C[C@@H](C)N[C@@H](C)C5)cc4)c3C#N)cc(F)c2[nH]1

1. 4.71 µM
2. > 100 µM
3. > 100 µM
4. > 100 µM
5. 48.4 µM
6. > 100 µM
7. > 100 µM
8. 4.33 µM

Reference source: PubChem BioAssay (NCI)
